- assayed_system: LHRH receptors (Rattus norvegicus, UniProt P30969)
- Construct: Pituitary membranes containing LHRH receptors are prepared in batches from quick-frozen rat pituitaries; tissue Hilltop Labs; host or cells: rat pituitary membranes
- Sequence (P30969 whole entry): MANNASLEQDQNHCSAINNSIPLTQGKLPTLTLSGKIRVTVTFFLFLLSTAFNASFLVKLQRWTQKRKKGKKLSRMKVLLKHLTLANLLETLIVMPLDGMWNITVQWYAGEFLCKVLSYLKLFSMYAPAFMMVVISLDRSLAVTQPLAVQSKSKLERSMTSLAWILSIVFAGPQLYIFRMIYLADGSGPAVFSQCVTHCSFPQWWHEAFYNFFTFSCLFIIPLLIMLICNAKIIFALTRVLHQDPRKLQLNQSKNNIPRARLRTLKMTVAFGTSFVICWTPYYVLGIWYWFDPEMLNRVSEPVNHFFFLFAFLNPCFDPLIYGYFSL
- protocol_details: Receptor Binding (radioligand receptor binding assay)
- measurement_parameters: table 3; rat pituitary membranes, radioiodinated [D-Leu^6 -des Gly^10 ]-LHRH ethyl amide 50 pM, 2 hours at 4° C.; read-out: Receptor Binding pkI (converted)
Square brackets hold non-standard residues; d marks the D form. Peptide text beside a SMILES is read from it. * marks the point of attachment. X16 = O=C(c1cc2ccccc2[nH]1)*; X15 = O=C(Cc1ccc(O)cc1)*; X2 = O=C(C=Cc1ccccc1)*
value_kind: Ki (nM)

The recorded Ki for entry CCNC(=O)[C@@H]1CCCN1C(=O)[C@H](CCCN=C(N)N)NC(=O)[C@H](CC(C)C)NC(=O)[C@@H](Cc1c[nH]c2ccccc12)NC(=O)[C@H](Cc1ccc(O)cc1)NC(=O)[C@H](CO)NC(=O)[C@H](Cc1c[nH]c2ccccc12)NC(=O)c1cc2ccccc2[nH]1 [Compound 101] (X16-WSY[dW]LRP-NHEt) equals 12.6

a: CCNC(=O)[C@@H]1CCCN1C(=O)[C@H](CCCNC(=N)N)NC(=O)[C@H](CC(C)C)NC(=O)[C@@H](Cc1c[nH]c2ccccc12)NC(=O)[C@H](Cc1ccc(O)cc1)NC(=O)[C@H](CO)NC(=O)C=Cc1ccccc1 [Compound 15] (X2-SY[dW]LRP-NHEt)
b: CCNC(=O)[C@@H]1CCCN1C(=O)[C@H](CCCNC(=N)N)NC(=O)[C@H](CC(C)C)NC(=O)[C@@H](Cc1c[nH]c2ccccc12)NC(=O)[C@H](Cc1ccc(O)cc1)NC(=O)[C@H](CO)NC(=O)Cc1ccc(O)cc1 [Compound 73] (X15-SY[dW]LRP-NHEt)
Input line: In the pair a and b , the larger recorded Ki belongs to which? Write down the label attached to your selection.
Output line: b
(b: 70.8 nM, a: 7.76 nM)

###

- assayed_system: LHRH receptors (Rattus norvegicus, UniProt P30969)
- Construct: Pituitary membranes containing LHRH receptors are prepared in batches from quick-frozen rat pituitaries; tissue Hilltop Labs; host or cells: rat pituitary membranes
- protocol_details: Receptor Binding (radioligand receptor binding assay)
- measurement_parameters: table 3; rat pituitary membranes, radioiodinated [D-Leu^6 -des Gly^10 ]-LHRH ethyl amide 50 pM, 2 hours at 4° C.; read-out: Receptor Binding pkI (converted)
Numbered stars: 1 amine (or outer) side, 2 acyl side, 3 side chain; on linkers, the order of the positions; unused ones are H or OH. Square brackets hold non-standard residues; d marks the D form. Peptide text beside a SMILES is read from it. * marks the point of attachment. Propanoyl(3-(4-MeO-Ph)) = COc1ccc(CCC(=O)*)cc1; Morpholide = C1CN(*)CCO1; X1 = COc1ccccc1C=CC(=O)*; CO = O=C([*:1])[*:2]
value_kind: Ki (nM)
I only need the number, in nM, no unit after it.

Past entries and their recorded results:
The recorded Ki for entry CCNC(=O)[C@@H]1CCCN1C(=O)[C@H](CCCNC(=N)N)NC(=O)[C@H](CC(C)C)NC(=O)[C@@H](Cc1c[nH]c2ccccc12)NC(=O)[C@H](Cc1ccc(O)cc1)NC(=O)[C@H](CO)NC(=O)[C@H](Cc1c[nH]c2ccccc12)NC(=O)CCc1ccc(OC)cc1 [Compound 95] ({Propanoyl(3-(4-MeO-Ph))}-WSY[dW]LRP-NHEt) equals 0.0776

The recorded Ki for entry CCNC(=O)[C@@H]1CCCN1C(=O)[C@H](CCCNC(=N)N)NC(=O)[C@H](CC(C)C)NC(=O)[C@@H](Cc1c[nH]c2ccccc12)NC(=O)[C@H](Cc1ccc(O)cc1)NC(=O)[C@H](CO)NC(=O)C=Cc1ccccc1OC [Compound 16] (X1-SY[dW]LRP-NHEt) equals 1.41

Others:
The recorded Ki for entry CCNC(=O)[C@@H]1CCCN1C(=O)[C@H](CCCNC(=N)N)NC(=O)[C@H](CC(C)C)NC(=O)[C@@H](CCCNC(=N)N)NC(=O)[C@H](Cc1ccc(O)cc1)NC(=O)[C@H](CO)NC(=O)[C@H](Cc1c[nH]c2ccccc12)NC(=O)[C@H](Cc1ccccc1)NC(=O)N1CCOCC1 [Compound 60] ({Morpholide-CO}-FWSY[dR]LRP-NHEt) equals 5.25

###

- assayed_system: LHRH receptors (Rattus norvegicus, UniProt P30969)
- Construct: Pituitary membranes containing LHRH receptors are prepared in batches from quick-frozen rat pituitaries; tissue Hilltop Labs; host or cells: rat pituitary membranes
- protocol_details: Receptor Binding (radioligand receptor binding assay)
- measurement_parameters: table 3; rat pituitary membranes, radioiodinated [D-Leu^6 -des Gly^10 ]-LHRH ethyl amide 50 pM, 2 hours at 4° C.; read-out: Receptor Binding pkI (converted)
Square brackets hold non-standard residues; d marks the D form. Peptide text beside a SMILES is read from it. * marks the point of attachment. Propanoyl(3-indol-3-yl) = O=C(CCc1c[nH]c2ccccc12)*; Acetyl(1-adamantyl) = O=C(CC12CC3CC(CC(C3)C1)C2)*; Acetyl(3-pyridyl) = O=C(Cc1cccnc1)*; NMeY = CN[C@@H](Cc1ccc(O)cc1)C(=O)O; X3 = O=C(CCc1ccc2ccccc2c1)*; X15 = O=C(Cc1ccc(O)cc1)*
Ki overview
I only need the number, in nM, no unit after it.

Past entries and their recorded results:
The recorded Ki for entry CCNC(=O)[C@@H]1CCCN1C(=O)[C@H](CCCNC(=N)N)NC(=O)[C@H](CC(C)C)NC(=O)[C@@H](CC(C)C)NC(=O)[C@H](Cc1ccc(O)cc1)NC(=O)[C@H](CO)NC(=O)Cc1cccnc1 [Compound 40] ({Acetyl(3-pyridyl)}-SY[dL]LRP-NHEt) equals 4370

The recorded Ki for entry CCNC(=O)[C@@H]1CCCN1C(=O)[C@H](CCCNC(=N)N)NC(=O)[C@H](CC(C)C)NC(=O)[C@@H](Cc1c[nH]c2ccccc12)NC(=O)[C@H](Cc1ccc(O)cc1)NC(=O)[C@H](CO)NC(=O)[C@@H](Cc1c[nH]c2ccccc12)NC(=O)CCc1c[nH]c2ccccc12 [Compound 103] ({Propanoyl(3-indol-3-yl)}-[dW]SY[dW]LRP-NHEt) equals 0.0794

The recorded Ki for entry CCNC(=O)[C@@H]1CCCN1C(=O)[C@H](CCCNC(=N)N)NC(=O)[C@H](CC(C)C)NC(=O)[C@@H](Cc1c[nH]c2ccccc12)NC(=O)[C@H](Cc1ccc(O)cc1)NC(=O)[C@H](CO)NC(=O)[C@H](Cc1c[nH]c2ccccc12)NC(=O)[C@H](Cc1ccccc1)NC(=O)CCc1ccc2ccccc2c1 [Compound 133] (X3-FWSY[dW]LRP-NHEt) equals 1.45

The recorded Ki for entry CCNC(=O)[C@@H]1CCCN1C(=O)[C@H](CCCN=C(N)N)NC(=O)[C@H](CC(C)C)NC(=O)[C@@H](Cc1c[nH]c2ccccc12)NC(=O)[C@H](Cc1ccc(O)cc1)NC(=O)[C@H](CO)NC(=O)[C@H](Cc1c[nH]c2ccccc12)NC(=O)Cc1ccc(O)cc1 [Compound 105] (X15-WSY[dW]LRP-NHEt) equals 0.562

Others:
The recorded Ki for entry CCNC(=O)[C@@H]1CCCN1C(=O)[C@H](CCCNC(=N)N)NC(=O)[C@H](CC(C)C)NC(=O)[C@@H](Cc1c[nH]c2ccccc12)NC(=O)[C@H](Cc1ccc(O)cc1)N(C)C(=O)[C@H](CO)NC(=O)CC12CC3CC(CC(C3)C1)C2 [Compound 81] ({Acetyl(1-adamantyl)}-S[NMeY][dW]LRP-NHEt) equals 0.589

The recorded Ki for entry CCNC(=O)[C@@H]1CCCN1C(=O)[C@H](CCCNC(=N)N)NC(=O)[C@H](CC(C)C)NC(=O)[C@@H](Cc1c[nH]c2ccccc12)NC(=O)[C@H](Cc1ccc(O)cc1)NC(=O)[C@H](CO)NC(=O)[C@H](Cc1c[nH]c2ccccc12)NC(=O)[C@H](Cc1ccccc1)NC(C)=O [Compound 72] (Ac-FWSY[dW]LRP-NHEt) equals 0.166

###

- assayed_system: LHRH receptors (Rattus norvegicus)
- Construct: Pituitary membranes containing LHRH receptors are prepared in batches from quick-frozen rat pituitaries; tissue Hilltop Labs; host or cells: rat pituitary membranes
- protocol_details: Receptor Binding (radioligand receptor binding assay)
- measurement_parameters: table 3; rat pituitary membranes, radioiodinated [D-Leu^6 -des Gly^10 ]-LHRH ethyl amide 50 pM, 2 hours at 4° C.; read-out: Receptor Binding pkI (converted)
Square brackets hold non-standard residues; d marks the D form. Peptide text beside a SMILES is read from it. * marks the point of attachment. Propanoyl(3-indol-3-yl) = O=C(CCc1c[nH]c2ccccc12)*; Propanoyl(3-(4-F-phenyl)) = O=C(CCc1ccc(F)cc1)*; NMeY = CN[C@@H](Cc1ccc(O)cc1)C(=O)O; dCha = N[C@H](CC1CCCCC1)C(=O)O; NMeL = CN[C@@H](CC(C)C)C(=O)O; Nicotinoyl = O=C(c1cccnc1)*; X14 = O=C(CCn1ccc2ccccc21)*; NMeS = CN[C@@H](CO)C(=O)O
Ki overview
I only need the number, in nM, no unit after it.

The recorded Ki for entry CCNC(=O)[C@@H]1CCCN1C(=O)[C@H](CCCNC(=N)N)NC(=O)[C@H](CC(C)C)NC(=O)[C@@H](CC1CCCCC1)NC(=O)[C@H](Cc1ccc(O)cc1)NC(=O)[C@H](CO)NC(=O)CCn1ccc2ccccc21 [Compound 34] (X14-SY[dCha]LRP-NHEt) equals 41.7

The recorded Ki for entry CCNC(=O)[C@@H]1CCCN1C(=O)[C@H](CCCNC(=N)N)NC(=O)[C@H](CC(C)C)N(C)C(=O)[C@@H](Cc1c[nH]c2ccccc12)NC(=O)[C@H](Cc1ccc(O)cc1)NC(=O)[C@H](CO)NC(=O)CCc1c[nH]c2ccccc12 [Compound 46] ({Propanoyl(3-indol-3-yl)}-SY[dW][NMeL]RP-NHEt) equals 11

The recorded Ki for entry CCNC(=O)[C@@H]1CCCN1C(=O)[C@H](CCCNC(=N)N)NC(=O)[C@H](CC(C)C)NC(=O)[C@@H](CCCCNC(=O)c1cccnc1)NC(=O)[C@H](Cc1ccc(O)cc1)NC(=O)[C@H](CO)NC(=O)CCc1c[nH]c2ccccc12 [Compound 52] ({Propanoyl(3-indol-3-yl)}-SY[dK](Nicotinoyl)LRP-NHEt) equals 21.9

Others:
The recorded Ki for entry CCNC(=O)[C@@H]1CCCN1C(=O)[C@H](CCCN=C(N)N)NC(=O)[C@H](CC(C)C)NC(=O)[C@@H](CCCCNC(=O)c1cccnc1)NC(=O)[C@H](Cc1ccc(O)cc1)N(C)C(=O)[C@H](CO)NC(=O)[C@@H](Cc1c[nH]c2ccccc12)NC(=O)CCc1ccc(F)cc1 [Compound 122] ({Propanoyl(3-(4-F-phenyl))}-[dW]S[NMeY][dK](Nicotinoyl)LRP-NHEt) equals 0.00955

The recorded Ki for entry CCNC(=O)[C@@H]1CCCN1C(=O)[C@H](CCCN=C(N)N)NC(=O)[C@H](CC(C)C)NC(=O)[C@@H](Cc1c[nH]c2ccccc12)NC(=O)[C@H](Cc1ccc(O)cc1)NC(=O)[C@H](CO)N(C)C(=O)[C@@H](Cc1c[nH]c2ccccc12)NC(=O)CCc1ccc(F)cc1 [Compound 121] ({Propanoyl(3-(4-F-phenyl))}-[dW][NMeS]Y[dW]LRP-NHEt) equals 0.0955
